system: HCC1569; assay: H1.0 immunofluorescence intensity relative to DMSO (% of DMSO); higher = stronger H1.0 induction, active = 140 or more; conditions: concentration: 10 µM; 24 h
Would you please tag the item y when its H1.0 immunofluorescence intensity is 100 or above, and n when it is below?

| compound | discrete.label |
| --- | --- |
| CCN(CC)CCCC(C)Nc1ccnc2cc(Cl)ccc12 (stereo not given) | n |
| COc1nccc(-c2c(-c3ccc(F)cc3)ncn2C2CCC(O)CC2)n1 (stereo not given) | y |
| Cc1cn2cc(C(=O)N(C)CCO)cc(N[C@@H]3CCOc4cccc(C)c43)c2n1 | y |
| CC(=O)NCC1CN(c2ccc(N3CCOCC3)c(F)c2)C(=O)O1 (stereo not given) | y |

====

system: HCC1569; assay: cell number relative to DMSO (% of DMSO); higher = more cells (less growth inhibition / toxicity); details: concentration: 10 µM; 24 h
# maps each entry to its cell number

| compound | cell number |
| --- | --- |
| COc1ccc(-c2cc(=O)c3c(O)cc(O)cc3o2)cc1O | 93.5 |
| OCC1=CC(O)C2C=COC(OC3OC(CO)C(O)C(O)C3O)C12 (stereo not drawn) | 99.6 |
| O=c1cc(-c2ccccc2)oc2cc(O)c(O)cc12 [6,7-Dihydroxyflavone] | 102 |
| O=C(O)c1cc2cc(F)ccc2[nH]1 | 99.3 |
| O=C(NO)c1cccc(C(=O)NCCc2ccccc2)c1 [N1-hydroxy-N3-phenethylisophthalamide] | 105 |
| Nc1cccc(-c2cc3c(Oc4cccc(O)c4)ncnc3[nH]2)c1 | 60.2 |
| Cc1ccc(C(=O)COC(=O)c2cccc(NC(=O)c3ccc([N+](=O)[O-])cc3[N+](=O)[O-])c2)cc1 | 76.5 |
| O=C1C(=Cc2ccc(O)c(O)c2)Oc2c1ccc(OC1OC(CO)C(O)C(O)C1O)c2O (stereo not drawn) | 99.5 |
| Cl.O=C(c1ccc(OCCN2CCCCC2)cc1)c1c(-c2ccc(O)cc2)sc2cc(O)ccc12 [Raloxifene hydrochloride] | 90.1 |
| Cl.Cl.OCCN1CCN(CCCN2c3ccccc3Sc3ccc(C(F)(F)F)cc32)CC1 [Fluphenazine dihydrochloride] | 92.5 |
| N[C@@H](Cc1cc(I)c(Oc2cc(I)c(O)c(I)c2)c(I)c1)C(=O)O | 103 |
| COC(=O)C(=C1OC(=O)C(c2ccccc2)=C1O)c1ccccc1 | 98.5 |
| CCn1c(=O)[nH]c2cc(Cl)c(Cl)cc21 | 99.9 |
| CN1CCN(c2c(F)cc3c(=O)c(C(=O)O)cn(CCF)c3c2F)CC1 | 101 |
| Cn1c(=O)c2[nH]cnc2n(C)c1=O [Aminophylline] | 103 |
| O=C([O-])C=CC(O)c1ccc(Cl)cc1.[Na+] (stereo not drawn) | 105 |
| CC(C)NCC(O)c1ccc(O)c(O)c1.O=C(O)C(O)C(O)C(=O)O (stereo not drawn) [R(-)-Isoproterenol (+)-bitartrate] | 99.2 |
| Cc1cc(I)ccc1Nc1c(C(=O)NOCC2CC2)cc(F)c(F)c1F | 97.2 |
| C[C@H](CCC(=O)O)[C@H]1CC[C@H]2[C@@H]3C[C@H](O)[C@@H]4C[C@H](O)CC[C@]4(C)[C@H]3CC[C@]12C [(3alpha,5beta,6alpha)-3,6-dihydroxycholan-24-oic acid] | 101 |
| O=C(Nc1cccc(-c2ccccc2)c1)OC1CCCCC1 [cyclohexyl [1,1'-biphenyl]-3-ylcarbamate] | 105 |
| O=S1(=O)CCN(CN2CCS(=O)(=O)NC2)CN1 | 98.4 |
| Br.CN=c1nc(-c2ccccc2)n(-c2ccccc2)s1 | 97.5 |
| O=C1CCc2cc(OCCCCc3nnnn3C3CCCCC3)ccc2N1 | 101 |
| COc1ccc2c(c1)c(CC(=O)N1CCOCC1)c(C)n2C(=O)c1ccc(Cl)cc1 | 102 |
| CCCC(=O)Oc1ccc2[nH]c(C(=O)c3cc4ccccc4[nH]3)cc2c1 | 86.9 |
| CC(CN1c2ccccc2Sc2ccccc21)N(C)C.Cl (stereo not drawn) [Promethazine.HCl] | 104 |
| Cl.N=C(N=C(N)N)N1CCOCC1 [Moroxydine.HCl] | 106 |
| CCCCCC(O)C=CC=CC=CC(O)CC=CCCCC(=O)O [8(S),15(S)-DIHETE all trans] | 103 |
| Cl.c1ccc(-n2c(C3=NCCN3)cc3ccccc32)cc1 | 98.8 |
| Cl.Oc1ccc(C2CNCCc3c2cc(O)c(O)c3Cl)cc1 (stereo not drawn) [Fenoldopam.HCl] | 97.6 |
| Oc1ccc(O)cc1 [Hydroquinone] | 74.9 |
| NCC(O)c1ccc(O)c(O)c1.O=C(O)C(O)C(O)C(=O)O (stereo not drawn) [Norepinephrine-(+)-tartrate L (-)] | 100 |
| CSc1nc(N)c2ncn(C3OC(COP(=O)([O-])OP(=O)([O-])OP(=O)([O-])[O-])C(O)C3O)c2n1.[Na+].[Na+].[Na+].[Na+] (stereo not drawn) [2-Methylthioadenosine triphosphate tetrasodium] | 102 |
